target: σ1R (Cavia porcellus); test: σ1R radioligand binding in guinea pig cortex with [3H]-; settings: read-out: Ki ± SEM; competition vs. 3 nM [3H]-(+)-pentazocine, guinea pig cortex
Sequence (Q60492 whole entry): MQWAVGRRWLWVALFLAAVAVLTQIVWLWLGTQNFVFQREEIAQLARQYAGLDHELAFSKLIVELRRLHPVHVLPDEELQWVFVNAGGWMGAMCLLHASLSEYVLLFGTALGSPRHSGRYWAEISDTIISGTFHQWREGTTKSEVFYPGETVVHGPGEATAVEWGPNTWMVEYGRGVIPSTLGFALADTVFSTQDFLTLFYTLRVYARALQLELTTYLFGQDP
pKi: −log10 of the molar value.

# Compound, pKi
measured = [
    ("CCCN1CCC=C(c2cc(-c3ccc(C)cc3)no2)C1", 9.07),
    ("CCCCN1[C@@H]2CC[C@H]1CC(OC(c1ccc(F)cc1)c1ccc(F)cc1)C2 (stereo partly shown)", 8.83),
    ("CCCN(CCC)CCc1ccc(OC)c(OCCc2ccccc2)c1", 8.94),
    ("c1ccc(CCCCN2CCC(c3ccccc3)CC2)cc1", 9.07),
]

* * *

test: Experimentally determined pKa

# Molecule, pKa
rows = [
    ("CC(C)=CCN1CC[C@]2(C)c3cc(O)ccc3C[C@H]1[C@H]2C [(+)-pentazocine]", "9.2 to 9.3"),
]
